- System: human breast MDA-MB-361 tumor cell line
- run-description: In vitro cell culture growth assay (MTS), MDA-MB-361
- Assay type: cell-based
- stated-conditions: Homo sapiens, MDA-MB-361, 72 h, MDA-MB-361 cells, MTS, three days after drug treatment; read-out: IC50 MDA-MB-361
value-type: IC50 (nM)
Numeric answer only, unit nM assumed.

stdin: Data request, read-out IC50, for CN(C)C1CCN(C(=O)c2ccc(NC(=O)Nc3ccc(-c4nc(N5CCOCC5)nc(N5CC6CCC5CO6)n4)cc3)cc2)CC1 (stereo not shown) [Example 810]
stdout: 2

stdin: Lookup CC(C)N1CCN(C(=O)c2ccc(NC(=O)Nc3ccc(-c4nc(N5CCOCC5)nc(N5CC6CCC5CO6)n4)cc3)cc2)CC1 (stereo not shown) [Example 811]
stdout: 2

stdin: Lookup CCN1CCN(C(=O)c2ccc(NC(=O)Nc3ccc(-c4nc(N5CCOCC5)nc(N5C6CCCC5COC6)n4)cc3)cc2)CC1 [Example 804]
stdout: 3

stdin: Lookup CCN1CCN(C(=O)c2ccc(NC(=O)Nc3ccc(-c4nc(N5CCOCC5)nc(N5C6CCC5COC6)n4)cc3)cc2)CC1 [Example 803]
stdout: 1

###

- test-system: Human mTOR (FLAG-TOR) (Homo sapiens)
- Sequence (P42345 1360-2549 limits assumed): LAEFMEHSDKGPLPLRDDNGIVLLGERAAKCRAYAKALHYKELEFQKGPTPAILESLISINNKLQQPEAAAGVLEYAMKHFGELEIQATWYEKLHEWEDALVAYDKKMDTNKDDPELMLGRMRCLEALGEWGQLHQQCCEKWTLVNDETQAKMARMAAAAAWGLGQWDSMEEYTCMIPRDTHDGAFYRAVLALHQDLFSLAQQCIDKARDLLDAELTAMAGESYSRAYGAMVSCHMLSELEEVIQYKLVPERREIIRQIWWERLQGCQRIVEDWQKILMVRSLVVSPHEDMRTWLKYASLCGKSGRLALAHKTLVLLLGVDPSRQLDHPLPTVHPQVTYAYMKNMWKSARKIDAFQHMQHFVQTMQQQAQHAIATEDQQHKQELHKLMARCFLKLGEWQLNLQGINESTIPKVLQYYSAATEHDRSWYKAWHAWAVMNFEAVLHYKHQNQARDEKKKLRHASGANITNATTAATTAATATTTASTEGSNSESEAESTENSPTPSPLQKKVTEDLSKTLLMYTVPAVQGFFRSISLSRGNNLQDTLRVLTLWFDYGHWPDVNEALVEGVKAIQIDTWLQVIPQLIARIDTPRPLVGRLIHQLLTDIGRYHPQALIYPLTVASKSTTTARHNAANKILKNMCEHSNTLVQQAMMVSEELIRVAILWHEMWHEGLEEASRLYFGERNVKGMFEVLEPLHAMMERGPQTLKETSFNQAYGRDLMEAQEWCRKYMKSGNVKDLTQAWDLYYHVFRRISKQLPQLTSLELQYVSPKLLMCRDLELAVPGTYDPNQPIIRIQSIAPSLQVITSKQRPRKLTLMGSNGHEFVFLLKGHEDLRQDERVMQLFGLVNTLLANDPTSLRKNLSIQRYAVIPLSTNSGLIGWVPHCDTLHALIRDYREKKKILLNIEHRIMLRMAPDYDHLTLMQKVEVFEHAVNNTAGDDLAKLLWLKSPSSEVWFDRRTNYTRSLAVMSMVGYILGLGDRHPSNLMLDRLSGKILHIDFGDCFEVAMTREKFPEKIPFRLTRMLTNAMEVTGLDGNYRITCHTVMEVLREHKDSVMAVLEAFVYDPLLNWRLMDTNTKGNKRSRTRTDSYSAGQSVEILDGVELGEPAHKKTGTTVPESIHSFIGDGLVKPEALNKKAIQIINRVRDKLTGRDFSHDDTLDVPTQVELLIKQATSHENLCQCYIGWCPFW
- run-description: mTOR kinase assay (DELFIA format, purified enzyme)
- Assay type: biochemical
- stated-conditions: read-out: IC50 mTOR
// bucketize IC50: class 0: < 1 nM; class 1: ≥ 1 nM and < 4 nM; class 2: ≥ 4 nM

stdin: Band for CN1CCN(c2ccc(NC(=O)Nc3ccc(-c4nc(-c5ccc(NC(=O)NC6CC6)cc5)nc(N5CC6CCC(C5)O6)n4)cc3)cc2)CC1 [Example 146] ?
stdout: class 1

stdin: Lookup CNc1nc(-c2ccc(NC(=O)Nc3cccnc3)cc2)nc(N2CC3CCC(C2)O3)n1 [Example 190]
stdout: class 2

stdin: Lookup O=C(Nc1ccc(C(=O)O)cc1)Nc1ccc(-c2nc(N3CCOCC3)nc(N3CCOCC3)n2)cc1 [Example 67]
stdout: class 1

stdin: Lookup CCN(CC)CCOC(=O)c1ccc(NC(=O)Nc2ccc(-c3nc(N4CCOCC4)nc(N4C5CCC4COC5)n3)cc2)cc1 [Example 40]
stdout: class 0

stdin: Lookup CN1CCN(C(=O)c2ccc(NC(=O)Nc3ccc(-c4nc(N5CCC5)nc(N5CCOCC5)n4)cc3)cc2)CC1 [Example 196]
stdout: class 2

stdin: Lookup CCCc1nc(-c2ccc(NC(=O)Nc3ccc(N4CCN(C)CC4)cc3)cc2)nc(N2CCOCC2)n1 [Example 294]
stdout: class 2

stdin: Lookup C[C@@H]1COCCN1c1nc(-c2ccc(NC(=O)Nc3cccnc3)cc2)nc(C2CCOCC2)n1 [Example 420]
stdout: class 0

stdin: Lookup NCc1ccc(NC(=O)Nc2ccc(-c3nc(N4C5CCC4COC5)nc(N4C5CCC4COC5)n3)cc2)cc1 [Example 368]
stdout: class 0

stdin: Lookup O=C(Nc1ccncc1)Nc1ccc(-c2nc(N3CCOCC3)nc(N3C[C@@H]4C[C@H]3CO4)n2)cc1 [Example 189]
stdout: class 2

stdin: Lookup CN(C)[C@H]1CCN(C(=O)c2ccc(NC(=O)Nc3ccc(-c4nc(N5CCOCC5)nc(N5CCOCC5)n4)cc3)cc2)C1 [Example 485]
stdout: class 1

stdin: Lookup CCc1nc(-c2ccc(NC(=O)Nc3cccc(C(=O)N(C)CCN(C)C)c3)cc2)nc(N2CCOCC2)n1 [Example 588]
stdout: class 2

stdin: Lookup C[C@@H]1COCCN1c1nc(-c2ccc(NC(=O)Nc3ccc(CN4CCCC4)cc3)cc2)nc(N2C3CCC2COC3)n1 [Example 418]
stdout: class 1

stdin: Lookup CN(C)CCCNC(=O)c1ccc(NC(=O)Nc2ccc(-c3nc(-c4cccs4)nc(N4CCOCC4)n3)cc2)cc1 [Example 570]
stdout: class 2

stdin: Lookup O=C(Nc1ccc(-c2nc(N3CCOCC3)nc(N3C4CCC3COC4)n2)cc1)Nc1ccnnc1 [Example 483]
stdout: class 1

stdin: Lookup O=C(CN1CCCC1)Nc1ccc(NC(=O)Nc2ccc(-c3nc(N4CC5CCC(C4)O5)nc(N4CC5CCC(C4)O5)n3)cc2)cc1 [Example 353]
stdout: class 0

stdin: Lookup CC(O)c1cccc(NC(=O)Nc2ccc(-c3nc(N4CCOCC4)nc(N4CCOCC4)n3)cc2)c1 (stereo not shown) [Example 57]
stdout: class 2

stdin: Lookup C[C@@H]1COCCN1c1nc(-c2ccc(NC(=O)Nc3ccc(OCCN4CCCC4)cc3)cc2)nc(N2CCOC[C@H]2C)n1 [Example 403]
stdout: class 0

stdin: Lookup NCCNc1nc(-c2ccc(NC(=O)Nc3cccnc3)cc2)nc(N2CC3CCC(C2)O3)n1 [Example 149]
stdout: class 2

stdin: Lookup COCCNC(=O)c1ccc(NC(=O)Nc2ccc(-c3nc(N4CCCCC4)nc(N4CCOCC4)n3)cc2)cc1 [Example 611]
stdout: class 2

stdin: Lookup CC(=O)N1CCN(c2nc(-c3ccc(NC(=O)Nc4ccncc4)cc3)nc(N3CC4CCC(C3)O4)n2)CC1 [Example 111]
stdout: class 1

stdin: Lookup CC(C)N1CCN(C(=O)c2ccc(NC(=O)Nc3ccc(-c4nc(N5CCOCC5)nc(N5C6COCC5COC6)n4)cc3)cc2)CC1 [Example 773]
stdout: class 0

stdin: Lookup CC(C)N1CCN(C(=O)c2ccc(NC(=O)Nc3ccc(-c4nc(N5CCOCC5)nc(N5CCOCC5)n4)cc3)cc2)CC1 [Example 515]
stdout: class 1

stdin: Lookup CC(C)N1CCN(c2ccc(NC(=O)Nc3ccc(-c4nc(N5CCOC[C@H]5C)nc(N5CCOC[C@H]5C)n4)cc3)cc2)CC1 [Example 448]
stdout: class 1

###

- test-system: UniProt:P48736
- run-description: PI3K-gamma fluorescence polarization assay
- stated-conditions: read-out: IC50 PI3Kγ
value-type: IC50 (nM)
Numeric answer only, unit nM assumed.

stdin: Request: IC50, test system UniProt:P48736, entry COCCNC(=O)c1ccc(NC(=O)Nc2ccc(-c3nc(-c4ccccc4)nc(N4CCOCC4)n3)cc2)cc1 [Example 551]
stdout: 118

stdin: Lookup O=C(Nc1ccc(-c2nc(N3CCOCC3)nc(N3CCOCC3)n2)cc1)Nc1ccc(C(F)(F)F)cc1 [Example 53]
stdout: 403

stdin: Lookup CN(C)CCN(C)C(=O)c1ccc(NC(=O)Nc2ccc(-c3nc(N4CCOCC4)nc(N4CCN(C(=O)N(C)C)CC4)n3)cc2)cc1 [Example 648]
stdout: 27

stdin: Lookup O=C(Nc1ccncc1)Nc1ccc(-c2nc(N3CCOCC3)nc(N3C(CO)CCC3CO)n2)cc1 (stereo not drawn) [Example 268]
stdout: 41

stdin: Lookup Cc1ccc(-c2nc(-c3ccc(NC(=O)Nc4ccc(C(=O)NCCN(C)C)cc4)cc3)nc(N3CCOCC3)n2)cc1 [Example 542]
stdout: 67

stdin: Lookup COC(=O)c1ccc(NC(=O)Nc2ccc(-c3nc(C)nc(N4CCOCC4)n3)cc2)cc1 [Example 162]
stdout: 495

stdin: Lookup CC(C)N1CCN(C(=O)c2ccc(NC(=O)Nc3ccc(-c4nc(N5CCC5)nc(N5CCOCC5)n4)cc3)cc2)CC1 [Example 492]
stdout: 35

stdin: Lookup O=C(Nc1ccc(F)cc1)Nc1ccc(-c2nc(N3CCOCC3)nc(N3CC4CCC(C3)O4)n2)cc1 [Example 24]
stdout: 99

stdin: Lookup CN(C)C(=O)N1CCN(c2nc(-c3ccc(NC(=O)Nc4ccncc4)cc3)nc(N3CCOCC3)n2)CC1 [Example 642]
stdout: 254

stdin: Lookup CCCCN1CCN(C(=O)c2ccc(NC(=O)Nc3ccc(-c4nc(N5CCOC[C@H]5C)nc(N5CCOC[C@@H]5C)n4)cc3)cc2)CC1 [Example 627]
stdout: 102

stdin: Lookup CC(C)Nc1nc(-c2ccc(NC(=O)Nc3ccncc3)cc2)nc(N2CC3CCC(C2)O3)n1 [Example 215]
stdout: 3160

stdin: Lookup COC(=O)c1ccc(NC(=O)Nc2ccc(-c3nc(N4CCOCC4)nc(N4CCOCC4)n3)cc2)cc1 [Example 58]
stdout: 85

stdin: Lookup CC(C)NCCCc1nc(-c2ccc(NC(=O)Nc3ccncc3)cc2)nc(N2CCOCC2)n1 [Example 275]
stdout: 711

stdin: Lookup O=C(Nc1ccc(C(=O)NCCN2CCCC2)cc1)Nc1ccc(-c2nc(N3CCOCC3)nc(N3C4CCC3COC4)n2)cc1 [Example 758]
stdout: 16

stdin: Lookup CC(C)c1nc(-c2ccc(NC(=O)Nc3ccc(-c4cncnc4)cc3)cc2)nc(N2CCOCC2)n1 [Example 487]
stdout: 27

###

- test-system: PI3K-γ (Homo sapiens)
- Sequence (P48736 whole entry, species assumed): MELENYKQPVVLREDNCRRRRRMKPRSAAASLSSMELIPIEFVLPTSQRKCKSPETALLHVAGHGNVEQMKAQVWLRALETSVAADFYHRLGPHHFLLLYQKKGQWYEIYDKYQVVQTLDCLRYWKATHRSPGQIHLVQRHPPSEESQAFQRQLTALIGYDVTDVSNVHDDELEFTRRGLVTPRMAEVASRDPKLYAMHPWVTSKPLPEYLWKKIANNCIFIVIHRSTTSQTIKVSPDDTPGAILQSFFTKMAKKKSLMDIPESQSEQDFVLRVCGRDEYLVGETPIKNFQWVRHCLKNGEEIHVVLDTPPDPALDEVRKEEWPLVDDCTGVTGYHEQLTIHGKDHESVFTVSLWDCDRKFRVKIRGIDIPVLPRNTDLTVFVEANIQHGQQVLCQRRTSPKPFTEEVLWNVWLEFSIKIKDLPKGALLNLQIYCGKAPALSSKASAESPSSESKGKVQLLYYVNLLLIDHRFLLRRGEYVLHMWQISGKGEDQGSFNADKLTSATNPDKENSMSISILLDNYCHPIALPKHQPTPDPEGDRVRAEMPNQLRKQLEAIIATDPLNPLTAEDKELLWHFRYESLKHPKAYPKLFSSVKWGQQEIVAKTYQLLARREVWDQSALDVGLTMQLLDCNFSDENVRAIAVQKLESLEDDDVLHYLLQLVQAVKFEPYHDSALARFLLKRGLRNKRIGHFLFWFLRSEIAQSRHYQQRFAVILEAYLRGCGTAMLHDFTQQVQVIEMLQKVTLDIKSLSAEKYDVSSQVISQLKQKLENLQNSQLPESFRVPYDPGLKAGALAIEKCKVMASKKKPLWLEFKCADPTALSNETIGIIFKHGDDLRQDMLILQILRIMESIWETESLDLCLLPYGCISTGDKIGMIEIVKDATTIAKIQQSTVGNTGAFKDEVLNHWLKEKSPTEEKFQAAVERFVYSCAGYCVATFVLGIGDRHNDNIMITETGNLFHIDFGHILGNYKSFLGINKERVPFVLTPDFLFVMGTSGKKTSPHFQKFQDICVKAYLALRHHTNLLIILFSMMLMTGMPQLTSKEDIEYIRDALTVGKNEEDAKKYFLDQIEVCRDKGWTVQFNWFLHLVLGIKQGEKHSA
- run-description: PI3K-gamma fluorescence polarization assay
- stated-conditions: read-out: IC50 PI3Kγ
value-type: IC50 (nM)
Numeric answer only, unit nM assumed.

stdin: Data request, read-out IC50, for CN(C)CCN(C)C(=O)c1ccc(NC(=O)Nc2ccc(-c3nc(NS(=O)(=O)c4ccccc4)nc(N4CCOCC4)n3)cc2)cc1 [Example 787]
stdout: 146

stdin: Lookup O=C(Nc1ccncc1)Nc1ccc(-c2nc(N3CCCCC3)nc(N3CC4CCC(C3)O4)n2)cc1 [Example 79]
stdout: 193

stdin: Lookup CN(C)CCCNC(=O)c1ccc(NC(=O)Nc2ccc(-c3nc(-c4cccs4)nc(N4CCOCC4)n3)cc2)cc1 [Example 570]
stdout: 48

stdin: Lookup CCCCc1nc(-c2ccc(NC(=O)Nc3ccc(C(=O)N4CCC(Cc5ccccc5)CC4)cc3)cc2)nc(N2CCOCC2)n1 [Example 270]
stdout: 318

stdin: Lookup COC(CNc1nc(-c2ccc(NC(=O)Nc3cccnc3)cc2)nc(N2CCOCC2)n1)OC [Example 488]
stdout: 180

stdin: Lookup CC(C)c1nc(-c2ccc(NC(=O)Nc3ccc(C(=O)NC4CCC4)cc3)cc2)nc(N2CCOCC2)n1 [Example 311]
stdout: 125

stdin: Lookup Cc1cc(NC(=O)Nc2ccc(-c3nc(N4CCOCC4)nc(N4CCC5(CC4)OCCO5)n3)cc2)ccn1 [Example 135]
stdout: 143
